Protocol text: soluble on expression in E. coli; label from the status in PepcDB or PDB records

{"columns": ["Sequence content", "soluble on expression in E. coli"],
 "data": [
  ["MSLRKFKSILLIDDDETSNFISEVIIKKLGITETISTVKNGVEALNFVSNNCTINCAPTCPQIIFLDLHMPVMDGFDFLKELKKQMPLYTQKFKIFVLSSSNNPADITKTKDFDVEGYIVKPLSQEKISMLLEDVAEGHHHHHH", "not soluble"],
  ["MSLDNFLTTGFLDIIPLSQPLEFRREGLQHGVLDKLRSGKYPQQASLNLLRQPVEECRKMMFSFIQQAMADGLRNVLIIHGKGREDKSHANIVRSYVARWLTEFDDVQAYCTALPHHGGSGACYVALRKTAQAKQENWERHAKRSREGHHHHHH", "not soluble"]
]}

----------
Protocol text: soluble on expression in E. coli; label from the status in PepcDB or PDB records

{"columns": ["Sequence content", "soluble on expression in E. coli"],
 "data": [
  ["HHHHHHDYDIPTTENLYFQGAITLLTLIKTAEHWARQDIRTIEDSKLRALLTLCAVMTRKFSKSQLSLLCETHLRREGLGQDQAEPVLEVYQRLHSDKGGSFEAALWQQWDRQSLIMFITAFLNIALQLPCESSAVVVSGLRTLVPQSDNEE", "soluble"],
  ["MSHRKALLIHNGNAANKNIEKALGAVVPVLSHHLDEVIIKQTKKKDHAYHFCRSIDDSVDTVFILGGDGTIHQCINAISALERKPAVGILPGGTSNDFSRVLGIPQNLAKAAEALMAGKKTSVDVCQMNDRYFLNFWGIGLIAETSNQINETEKALLGKISYFTSALRTVSSAASFPMTLKIDGEEIKEEAVMLLVMNGQYIGTNRIPLPDASIEDGLLDVLICRNTNLTALRELMSMEQGSIDRFTGELSYVQASRIEIETDTAKKADMDGEVYTHTPAVIQVLPQHIDMLVPANE", "soluble"]
]}

----------
Protocol text: soluble on expression in E. coli; label from the status in PepcDB or PDB records
Endpoint name: soluble on expression in E. coli

Solved cases below.
{"columns": ["Sequence content", "soluble on expression in E. coli"],
 "data": [
  ["MSLDKFQLKGKVALVTGCKRGIGKAMAIGLAEAGADIIGVSASLELEGSSVEQAIRATGRNFKAYQCDFSDRKSLYNFINSVKADYSRIDILVNNAGTILRTPAAEHPDEMWDKVIEVNQNAQFILTRELGKEMVSRGEGKVIFTASLLTFQGGITVPGYAASKGAIGQMTMAFANEWASKGVNVNAIAPGYISTDNTEALRNDPDRSASILSRIPAGRWGEAEDFAGPVVFLASEAAAYMHGSIMLVDGGWMGREGHHHHHH", "soluble"],
  ["MGSDKIHHHHHHMKPIATPDPIIAQAVKLFAERGYAETNLPSIAKAANVAVGTIYRHFKGKEDILNTAFTDIMDYFHDSLADAANCNVSDPESTFSHLFDAAALTMQHYPTELHFIEQNVFNEALRPESRAARDRVTTLISNMLMEGQEHGVIVKADVRTQLAILYGSIVSMIDIVWVQQQLQGHVPDQDQLALELKNQIWNGLTCERSIFQ", "not soluble"],
  ["MDILLVDGYNMIGAWPQLKDLKANSFEEARDVLIQKMAEYQSYTGNRVIVVFDAHLVKGLEKKQTNHRVEVIFTKENETADERIEKLAQALNNIATQIHVATSDYTEQWAIFGQGALRKSARELLREVETIERRIERRVRKITSEKPAGKIALSEEVLKTFEKWRRGDLDLEHHHHHH", "not soluble"],
  ["MDWHCVSPDGCERSEELQRIDRAYSTDYEWEFASTVDDSFEEYAMRILTDSLGSGCAWLYDLTLLGYNLQRSRQCYTVAGFELELSIPNEDPATFSEWVVVGRDIDVLGEE", "not soluble"],
  ["MPLVNSHIVEECLPFTSLRLDPEDINLSMGAGYVPDAEIQAISDALETEIAGICTPRFLYALFDAEPAGTCEVGVNGISLKTGSVITPYLKDAAGYVLFVATAGYEFEAFQHRIGSQGDILREFLLDAYGSAIAEAVVREVCRKVESRMFPLGYGVSHPYSPGYCGWHVTQQQLLFSCLPEFPCGVRLSDSSLMSPIKSVSGIIAYGPCIVKRKYGCELCGKADCYKNRNKLNRLEHHHHHH", "soluble"]
]}

# soluble on expression in E. coli lookup, item MGRIKRGLDYFPMSTSFMHDRMVRRIMRREGDSAFATLVETLSYIYAGKGYYISVGDEFYEELVDSLYSTELDDVKRIISLSVEYGLFDAGLFRQYNILTSADIQRQYLFITKRRSSALIEPDYCLLESEEITSYRSSQSGKSSTDDSLDSECAEALNGDADHKTACTVTSSFDSVTMEDEIATSGTQNKRKQIKINQNKVNHLPNPPQGGDEGGKYLKSRTAVTQEDIDCLQPPCDGVQRNFQGLTDNLRLYKVPPSEQYAIILKSNFGAIGNPVWKGFNTIRGSNGKIRLPGHYLLSIIN
not soluble

# soluble on expression in E. coli lookup, item MGSDKIHHHHHHMTDIATYNFAYLDEQTKRMIRRAILKGIAIPGYQVPFASREMPMPYGWGTGGVQVTASIIGPDDVLKVIDQGADDTTNAVSIRAFFKKVANVAVTTNTASATIIQTRHRIPEHPLTAGQVLVYQVPIPEPLRFLEPRETETRKMHALEEYGLMHVKLYEDIAKHGRIATTYAYPVKVEGRYVMDPSPTPKFDNPKMHRSPALQLFGAGREKRIYAVPPFTDVVSLDFEDHPFEVQTFDQPCALCAAENVYLDEVILDDHGGHMFVCSDTDHCEKRREEGHRGHLAPETHLGSEKMEPAQ
not soluble

# soluble on expression in E. coli lookup, item MGSDKIHHHHHHMQVPKVTLNNGVEMPILGYGVFQIPPEKTEECVYEAIKVGYRLIDTAASYMNEEGVGRAIKRAIDEGIVRREELFVTTKLWVSDVGYESTKKAFEKSLKKLQLEYIDLYLIHQPFGDVHCAWKAMEEMYKDGLVRAIGVSNFYPDRLMDLMVHHEIVPAVNQIEIHPFYQRQEEIEFMRNYNIQPEAWGPFAEGRKNIFQNGVLRSIAEKYGKTVAQVILRWLTQKGIVAIPKTVRRERMKENISIFDFELTQEDMEKIATLDEGQSAFFSHRDPEVVKWICSLKR
soluble

# soluble on expression in E. coli lookup, item VDSKKRPGKDLDRIDRNILNELQKDGRISNVELSKRVGLSPTPCLERVRRLERQGFIQGYTALLNPHYLDASLLVFVEITLNRGAPDVFEQFNTAVQKLEEIQECHLVSGDFDYLLKTRVPDMSAYRKLLGETLLRLPGVNDTRTYVVMEEVKQSNRLVIKTR
soluble

# soluble on expression in E. coli lookup, item GSHHHHHHSSGLVPRGSFNELNAINENIRDDLSALLKSDFFKYFRLDLYKQCSFWDANDGLCLNRACSVDVVEDWDTLPEYWQPEILGSFNNDTMKEADDSDDECKFLDQLCQTSKKPVDIEDTINYCDVNDFNGKNAVLIDLTANPERFTGYGGKQAGQIWSTIYQDNCFTIGETGESLAKDAFYRLVSGFHASIGTHLSKEYLNTKTGKWEPNLDLFMARIGNFPDRVTNMYFNYAVVAKALWKIQPYLPEFSFCDLVNKEIKNKMDNVISQLDTKIFNEDLVFANDLSLTLKDEFRSRFKNVTKIMDCVQCDRCRLWGKIQTTGYATALKILFEINDADEFTKQHIVGKLTKYELIALLQTFGRLSESIESVNMFEKMYGKRLLER
soluble
